experiment: Antimigratory activity against human EC17 cells assessed as inhibition of migration after 24 hrs by chemotaxis cell chamber assay; format: functional, cell-based; conditions: EC17, 24 h
// classify: if (IC50 < 5 µM) T else F

// known answers, use as guide
> print(dat)
                                   compound  discrete.label
1  C=C(CC[C@H]1[C@@H](C)CCCC1(C)C)C(O)Cc1c(O)cc(C)cc1O (relative stereo)               T
2  C=C(CC[C@@]1(C)[C@H](C)CCC(=O)[C@@H]1C)[C@H](O)Cc1c(O)cc(C)c(C=O)c1O               F
3  C=C(CCc1c(C)cccc1C)C(O)Cc1c(O)cc(C)c(C=O)c1O (stereo not drawn)               F

Now look at this entry.
Could you please tell me whether IC50 recorded for C=C(CC[C@@]1(C)[C@H](C)CCC(=O)[C@@H]1C)C(O)Cc1c(O)cc(C)cc1O (stereo partly drawn) is less than 5 µM?
F
